Test system: Rat fibroblasts (CREF)
Assay: Peg3 promoter luciferase inhibitors, potency, dose response, cell-based, HeLa, CREF/GAPDH counter-screen panel (AID 624167)
Conditions: CREF/GAPDH counter-screens, mean of runs
Activity calls are given as the source filed them.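 How the source made its calls: active means mean IC50 for reducing PEG3 promoter reporter signal at or below a set limit, with IC50 above the limit in both counter screens; inactive means the rest, including counter screen hits.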
I would appreciate it if you answered using one of these outcomes: T (active), F (inactive)

Take a look at these entries with their results.
• COc1ccc(/C=C/c2nc3ccccc3n2C)cc1 = T
• CCCCCCCn1c(=N)n(CC(=O)c2ccco2)c2ccccc21 = T
• COc1cc(/C=C2\SC(=Nc3ccccc3OC)NC2=O)ccc1O = F
• CN=c1sc2c(n1C)C(=O)c1ccccc1C2=O = T
• O=c1c2ccccc2cnn1-c1nc2ccccc2[nH]1 = T
• O=C(CN1C(=O)c2ccccc2S1(=O)=O)c1ccc2c(c1)OCCO2 = T

GET /call?item= CCCn1c(C)cc(C(=O)CN2C(=O)c3ccccc3S2(=O)=O)c1C returns the recorded outcome of this test.
T

GET /call?item= CN(C)c1ccc(NC(=S)c2ccccn2)cc1 returns the recorded outcome of this test.
T

GET /call?item= COC(CNC(=O)c1ccc2c3c(onc13)-c1ccccc1C2=O)OC returns the recorded outcome of this test.
T

GET /call?item= CN=c1scc(-c2ccccc2F)n1/N=C/c1ccc[nH]1 returns the recorded outcome of this test.
T

GET /call?item= O=C(Nc1nc2cc3c(cc2s1)OCO3)C1=COCCO1 returns the recorded outcome of this test.
T

GET /call?item= O=C(Nc1ccc(Cc2ccncc2)cc1)c1ccc([N+](=O)[O-])o1 returns the recorded outcome of this test.
T

GET /call?item= COc1ccc(C(=O)NNC(=O)c2ccccn2)cc1 returns the recorded outcome of this test.
T

GET /call?item= O=c1cnnc(N/N=C/c2ccccn2)[nH]1 returns the recorded outcome of this test.
F

GET /call?item= CC(C)(C)c1ccc(Cn2c(=O)cnc3ccccc32)cc1 returns the recorded outcome of this test.
F
